- System: HepG2 cells
- test-summary: cells
- applied-conditions: Homo sapiens, HepG2, read-out: MMP assays IC50 (µM) HepG2
In this section, each of the molecules is paired with its reported IC50.
Your answer should be a plain number; it is taken to be in µM.

Examples from the recorded data:
- molecule: "N#CC(C#N)=NNc1cccc(Cl)c1 [Carbonyl cyanide chlorophenylhydrazone]"
  study-system: "HepG2 cells"
  IC50 / µM: 0.25
- molecule: "CO/N=C(/C1=NOCCO1)c1ccccc1Oc1ncnc(Oc2ccccc2Cl)c1F"
  study-system: "HepG2 cells"
  IC50 / µM: 11.2
- molecule: "CCCOC(=O)c1cc(O)c(O)c(O)c1 [Propyl gallate]"
  study-system: "HepG2 cells"
  IC50 / µM: 35.5
- molecule: "O=C(c1ccccc1)c1ccc(O)cc1 [Compound 4-Hydroxybenzophenone]"
  study-system: "HepG2 cells"
  IC50 / µM: 28.2
- molecule: "CN1C(C(=O)Nc2ccccn2)=C(O)c2sccc2S1(=O)=O"
  study-system: "HepG2 cells"
  IC50 / µM: 6.6

Input: What does the record list as IC50 for CCC(C)(c1ccc(O)cc1)c1ccc(O)cc1 ?
Output: 10

Input: Similarly, O=C1c2ccccc2C(=O)c2c1ccc(O)c2O ?
Output: 13.8

Input: Moving on to O=c1c(-c2ccc(O)cc2)coc2cc(O)cc(O)c12
Output: 10

Input: Repeat with CC(C)(c1ccc(O)cc1)c1ccc(O)cc1
Output: 15.8

Input: Moving on to O=C(Nc1ccccc1)Nc1ccccc1
Output: 2.51

Input: Okay, and COc1cc(C(=O)NS(=O)(=O)c2ccccc2C)ccc1Cc1cn(C)c2ccc(NC(=O)OC3CCCC3)cc12 ?
Output: 13.8

Input: Now consider NS(=O)(=O)C(F)(F)C(F)(F)C(F)(F)C(F)(F)C(F)(F)C(F)(F)C(F)(F)C(F)(F)F [Perfluorooctanesulfonamide] and answer again.
Output: 2.51

Input: Ok, now Brc1ccc(Oc2cc(Br)c(Br)cc2Br)c(Br)c1
Output: 4.47

Input: Repeat with O=C(O)Cc1sc(-c2ccccc2)nc1-c1ccc(Cl)cc1
Output: 19.4

Input: What do you get for Nc1cccc(N)n1 ?
Output: 35.5

Input: Next entry: O=P(OCC(Br)CBr)(OCC(Br)CBr)OCC(Br)CBr (stereo not shown) [Tris(2,3-dibromopropyl) phosphate]
Output: 50.1

Input: Do the same for CN(C)c1ccc2nc3ccc(=[N+](C)C)cc-3sc2c1 please
Output: 2.75

Input: // same read-out, input: O=C(Nc1ccccc1)Nc1ccnc(Cl)c1
Output: 1

Input: Same read-out for CC(=O)CC(c1ccccc1)c1c(O)c2ccccc2oc1=O (stereo not shown) [Sodium warfarin] ?
Output: 35.5

====

- Tested on: rat primary hepatocytes
- test-summary: MMP assay in rat primary hepatocytes
- applied-conditions: Rattus norvegicus, Hepatocyte, 1 h, read-out: Rat hepatocytes IC50 (MMP)
pIC50: −log10 of the molar value.
Param threshold (5) applies to pIC50; output t when value >= threshold, f when value < threshold.

Input: Check if pIC50 >= 5 (inclusive). Item: CO[C@H]1/C=C/O[C@@]2(C)Oc3c(C)c(O)c4c(O)c(c(/C=N/N5CCN(C6CCCC6)CC5)c(O)c4c3C2=O)NC(=O)/C(C)=C\C=C\[C@H](C)[C@H](O)[C@@H](C)[C@@H](O)[C@@H](C)[C@H](OC(C)=O)[C@@H]1C [Rifapentine, reference compound]
Output: t
